ASSAY TARGET: Met receptor (EGFR/Met chimeric cells, EMR) (Homo sapiens, UniProt P08581)
Construct: expressed in transfected cells; the other entry of the earlier key: EGFR (P00533, Epidermal growth factor receptor)
Sequence (P08581 with tags, fused parts or gaps): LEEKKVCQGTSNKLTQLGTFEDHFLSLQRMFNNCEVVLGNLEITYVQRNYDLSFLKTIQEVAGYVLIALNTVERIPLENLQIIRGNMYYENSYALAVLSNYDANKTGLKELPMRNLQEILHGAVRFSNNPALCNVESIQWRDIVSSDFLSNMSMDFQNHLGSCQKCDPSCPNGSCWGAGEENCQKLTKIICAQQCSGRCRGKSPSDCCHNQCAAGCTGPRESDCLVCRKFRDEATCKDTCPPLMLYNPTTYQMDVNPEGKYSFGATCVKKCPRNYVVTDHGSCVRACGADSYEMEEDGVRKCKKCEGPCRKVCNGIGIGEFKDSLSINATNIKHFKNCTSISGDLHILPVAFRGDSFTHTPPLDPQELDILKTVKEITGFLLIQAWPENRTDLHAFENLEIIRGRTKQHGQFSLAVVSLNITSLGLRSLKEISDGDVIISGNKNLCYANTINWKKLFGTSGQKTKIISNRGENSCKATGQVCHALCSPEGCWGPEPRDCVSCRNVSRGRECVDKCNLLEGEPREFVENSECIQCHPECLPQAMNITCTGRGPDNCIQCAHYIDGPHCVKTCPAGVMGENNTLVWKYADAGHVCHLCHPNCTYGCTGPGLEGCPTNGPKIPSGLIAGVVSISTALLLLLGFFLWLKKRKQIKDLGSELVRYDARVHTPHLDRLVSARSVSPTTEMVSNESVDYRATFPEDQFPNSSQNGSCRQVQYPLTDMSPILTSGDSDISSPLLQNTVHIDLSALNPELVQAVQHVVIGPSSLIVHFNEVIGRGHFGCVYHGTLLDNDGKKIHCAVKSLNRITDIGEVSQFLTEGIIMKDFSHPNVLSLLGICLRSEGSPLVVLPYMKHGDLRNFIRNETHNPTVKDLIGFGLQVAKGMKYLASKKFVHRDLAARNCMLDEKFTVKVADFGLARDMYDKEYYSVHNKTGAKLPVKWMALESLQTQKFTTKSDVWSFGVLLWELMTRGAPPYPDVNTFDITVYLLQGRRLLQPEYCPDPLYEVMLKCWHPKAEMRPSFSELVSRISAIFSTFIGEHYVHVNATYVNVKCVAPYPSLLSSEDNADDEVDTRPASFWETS
TEST: Met Autophosphorylation Assay; further: test concentration or dose not given here
Assay type: biochemical
CONDITION CONTEXT: protocol P.130
QUANTITY: Met Kinase % Inhibition (P.130) (%)
Reply with just the number (in %).

O=C1Nc2ccc(CCCl)cc2C1=Cc1cc(F)ccc1F ... 49.1
O=C1Nc2ccc(CCCl)cc2C1=Cc1ccoc1 ... 36.5
Cc1c(Br)ccc2c1C(=Cc1cc(O)c(O)c(O)c1)C(=O)N2 ... 93.0
CNS(=O)(=O)c1ccc2c(c1)C(=CN1CCCC1OC)C(=O)N2 (stereo not shown) ... 19.4
CCCOc1ccc(C=C2C(=O)Nc3ccc(S(=O)(=O)N4CCOCC4)cc32)cc1 ... 52.6
O=C1Nc2c(Br)cc(Br)cc2C1=Cc1ccsc1 ... 79.5
Cc1c(Br)cc(Br)c2c1C(=Cc1cn(C)c3ccccc13)C(=O)N2 ... 1.5
O=C1Nc2ccc(CCCl)cc2C1=Cc1cnc2ccccc2c1 ... 55.2
COc1ccccc1C=C1C(=O)Nc2c(Br)cc(Br)c(C)c21 ... 52.3
CNS(=O)(=O)c1ccc2c(c1)C(=Cc1cccc(F)c1F)C(=O)N2 ... 41.8

Query Met Kinase % Inhibition (P.130) for COc1ccc(C=C2C(=O)Nc3c(Br)cc(Br)cc32)cc1C
41.8

Query Met Kinase % Inhibition (P.130) for O=C1Nc2ccc(CCCl)cc2C1=Cc1ccccc1F
6.6

Query Met Kinase % Inhibition (P.130) for COC1CCCN1C=C1C(=O)Nc2ccc(CCCl)cc21 (stereo not shown)
9.1

Query Met Kinase % Inhibition (P.130) for COc1ccc(C=C2C(=O)Nc3ccc(Br)c(C)c32)cc1C
34.7

Query Met Kinase % Inhibition (P.130) for CCCOc1ccc(C=C2C(=O)Nc3c(Br)cc(Br)c(C)c32)cc1
24.9

Query Met Kinase % Inhibition (P.130) for CNS(=O)(=O)c1ccc2c(c1)C(=Cc1ccc3ccccc3c1)C(=O)N2
42.0

Query Met Kinase % Inhibition (P.130) for O=C1Nc2ccc(S(=O)(=O)N3CCOCC3)cc2C1=CC1COc2ccccc2O1 (stereo not shown)
−5.4

Query Met Kinase % Inhibition (P.130) for Cc1ccc(C=C2C(=O)Nc3c(Br)cc(Br)c(C)c32)cc1
21.1

Query Met Kinase % Inhibition (P.130) for O=C1Nc2ccc(S(=O)(=O)Nc3ccc(C(F)(F)F)cc3)cc2C1=Cc1cccc(Oc2ccc(Cl)c(Cl)c2)c1
21.1
